- Test system: JJN-3 (NIK translocated) multiple myeloma cells
- Assay Procedure: Antiproliferative activity on JJN-3 multiple myeloma cells (CellTiter-Glo, 96 hr), Biological Assay C
- Assay type: cell-based, human
- Experimental Conditions: Homo sapiens, JJN-3, 96 h, JJN-3 (NIK translocated) cells, averaged values, read-out: JJN-3 Proliferation inhibition (IC50 (nM))
- Method: Determination of Antiproliferative Activity on JJN-3 (NIK Translocated) and KMS12-BM (NIK WT) Multiple Myeloma Cells All compounds tested were dissolved in DMSO and further dilutions were made in culture medium. Final DMSO concentration was 0.3% (v/v) in cell proliferation assays. Viability was assessed using CellTiter-Glo cell viability assay kit (Promega). […] Luminescence was measured on a HTS Topcount (Perkin Elmer). […]
Binary call on IC50 with cut-off 200 nM: strictly below means yes (1), and equality or higher means no (0).

- Molecule: "CN(C)Cc1cc(Nc2nccc(-c3cc(C#N)c4c(c3)[C@@](C)(CO)CN4)n2)ccc1C1CCOCC1"
  Assay Target: "JJN-3 (NIK translocated) multiple myeloma cells"
  Label: "yes (1)"
- Molecule: "C[C@]1(CO)CNc2c(C#N)cc(-c3ccnc(Nc4cc(C#N)c(F)cc4OC4CC4)n3)cc21"
  Assay Target: "JJN-3 (NIK translocated) multiple myeloma cells"
  Label: "yes (1)"
- Molecule: "C[C@]1(CO)CNc2c(C#N)cc(-c3ccnc(Nc4cc(C#N)ccc4C(F)(F)F)n3)cc21"
  Assay Target: "JJN-3 (NIK translocated) multiple myeloma cells"
  Label: "no (0)"
- Molecule: "COCc1cc(OC)c(Nc2nccc(-c3cc(C#N)c4c(c3)C(C)(C)CN4)n2)cc1Cl"
  Assay Target: "JJN-3 (NIK translocated) multiple myeloma cells"
  Label: "yes (1)"
- Molecule: "Cc1ccc(C#N)cc1Nc1ncc(F)c(-c2cc(C#N)c3c(c2)[C@@](C)(CO)CN3)n1"
  Assay Target: "JJN-3 (NIK translocated) multiple myeloma cells"
  Label: "no (0)"
- Molecule: "COc1cc(C(=O)N2CC3(CC(O)C3)C2)c(Cl)cc1Nc1nccc(-c2cc(C#N)c3c(c2)C(C)(C)CN3)n1"
  Assay Target: "JJN-3 (NIK translocated) multiple myeloma cells"
  Label: "yes (1)"
- Molecule: "CC1(CO)CNc2c(C#N)cc(-c3ccnc(Nc4cc(C#N)ccc4Cl)n3)cc21 (stereo not shown)"
  Assay Target: "JJN-3 (NIK translocated) multiple myeloma cells"
  Label: "yes (1)"

Values were extracted from patent US11180487B2.
